- Test Target: Δ49N-hChoKα (Homo sapiens)
- Construct: cDNA fragment 362-1534, corresponding to aminoacids 50 457; GST (N, cleaved yes); PreScission Protease recognition site (N); made in house; host or cells: Escherichia coli BL21pLysS (DE3)
- Sequence (P35790 50-439 isoform P35790-2): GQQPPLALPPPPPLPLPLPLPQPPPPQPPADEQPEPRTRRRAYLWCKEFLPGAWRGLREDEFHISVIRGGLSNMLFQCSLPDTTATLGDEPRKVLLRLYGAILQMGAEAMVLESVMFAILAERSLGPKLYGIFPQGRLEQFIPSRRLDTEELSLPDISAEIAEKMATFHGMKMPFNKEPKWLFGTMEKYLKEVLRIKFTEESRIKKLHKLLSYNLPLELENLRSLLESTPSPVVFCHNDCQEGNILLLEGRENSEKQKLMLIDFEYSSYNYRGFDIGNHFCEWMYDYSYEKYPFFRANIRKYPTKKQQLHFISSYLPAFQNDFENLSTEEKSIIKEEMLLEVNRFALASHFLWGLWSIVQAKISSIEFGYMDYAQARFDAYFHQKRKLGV
- Experimental Details: Biochemical kinase inhibition assay (Kinase-Glo luminescent) on Δ49N-hChoKα
- Test Parameters: recombinant Δ49N-hChoKα 2.2 nM, ATP 5 μM, choline 5 μM, 60 min rt; read-out: ChoKα IC50
pIC50: −log10 of the molar value.

- Compound: "Cc1nc(NC(=O)c2n[nH]c3c2C(C)(C)Cc2cnc(N)nc2-3)sc1C(=O)NC1CCCCC1"
  Relation Sign: "="
  pIC50: 6.70
- Compound: "CN(C)[C@@H]1CCN(C(=O)C2(c3csc(NC(=O)c4n[nH]c5c4C(C)(C)Cc4cnc(N)nc4-5)n3)CC2)C1"
  Relation Sign: "="
  pIC50: 6.27
- Compound: "CC1(C)Cc2cnc(N)nc2-c2[nH]nc(C(=O)Nc3nc(CC(=O)N4CC[C@@H]([N+](C)(C)[O-])C4)cs3)c21"
  Relation Sign: "="
  pIC50: 7.85
- Compound: "CC1CCN(C2(C)CCN(C(=O)Cc3csc(NC(=O)c4n[nH]c5c4C(C)(C)Cc4cnc(N)nc4-5)n3)CC2)CC1"
  Relation Sign: "="
  pIC50: 8.70
- Compound: "CC1(C)Cc2cnc(N)nc2-c2[nH]nc(C(=O)Nc3cccc(CC(=O)N4CCC(N5CCCCC5)CC4)c3)c21"
  Relation Sign: "="
  pIC50: 7.72
- Compound: "CC1(C)Cc2cnc(N)nc2-c2[nH]nc(C(=O)Nc3ncc(CC(=O)NC4CCCCC4)s3)c21"
  Relation Sign: "="
  pIC50: 6.86
- Compound: "CN(C)[C@@H]1CCN(C(=O)Cc2cccc(NC(=O)c3n[nH]c4c3C(C)(C)Cc3cnc(N)nc3-4)c2)C1"
  Relation Sign: "="
  pIC50: 6.96
- Compound: "CC1(C)Cc2cnc(N)nc2-c2[nH]nc(C(=O)Nc3ccc(C(=O)N4CCC(N5CCCCC5)CC4)cc3)c21"
  Relation Sign: "="
  pIC50: 7.62
- Compound: "CC1(C)Cc2cnc(N)nc2-c2[nH]nc(C(=O)Nc3nc(CC(=O)N4CCN(c5ccccc5)CC4)cs3)c21"
  Relation Sign: "="
  pIC50: 7.60
- Compound: "Cc1cnc(NC(=O)c2n[nH]c3c2C(C)(C)Cc2cnc(N)nc2-3)s1"
  Relation Sign: "="
  pIC50: 6.86
- Compound: "CC1CCN(C2CCN(C(=O)Cc3csc(N(C)C(=O)c4n[nH]c5c4C(C)(C)Cc4cnc(N)nc4-5)n3)CC2)CC1"
  Relation Sign: "="
  pIC50: 7.28
- Compound: "Cn1nc(C(=O)Nc2ccc(CN3CCC(N4CCCCC4)CC3)cc2)c2c1-c1nc(N)ncc1CC2(C)C"
  Relation Sign: "="
  pIC50: 6.90
- Compound: "Cn1nc(C(N)=O)c2c1-c1nc(N)ncc1CC2(C)C [Ref. cpd 1, reference compound]"
  Relation Sign: "<"
  pIC50: 5.00
- Compound: "CC1CCCN(C2CCN(C(=O)Cc3csc(NC(=O)c4n[nH]c5c4C(C)(C)Cc4cnc(N)nc4-5)n3)CC2)C1 (stereo not drawn)"
  Relation Sign: "="
  pIC50: 8.30
- Compound: "CNC1CCN(C(=O)Cc2csc(NC(=O)c3n[nH]c4c3C(C)(C)Cc3cnc(N)nc3-4)n2)CC1"
  Relation Sign: "="
  pIC50: 7.28
- Compound: "CCOC(=O)c1cnc(NC(=O)c2n[nH]c3c2C(C)(C)Cc2cnc(N)nc2-3)s1"
  Relation Sign: "="
  pIC50: 6.37
- Compound: "CC1(C)Cc2cnc(N)nc2-c2[nH]nc(C(=O)Nc3nc(CN4CCC(N5CCCCC5)CC4)cs3)c21"
  Relation Sign: "="
  pIC50: 6.85
- Compound: "CC1(C)Cc2cnc(N)nc2-c2[nH]nc(C(=O)Nc3ccc(CC(=O)N4CCC(N5CCCCC5)CC4)cc3)c21"
  Relation Sign: "="
  pIC50: 7.24
